assay: Alamar Blue cell viability/cytotoxicity assay, Caco-2; assay type: cell-based, human; settings: human; Caco-2, 200 µM, 48 h
measured metric: viability at 48 h, 200 µM (%)
Numbers only, in %.

// query viability at 48 h, 200 µM value for entry C=CCOC(Cn1ccnc1)c1ccc(Cl)cc1Cl (stereo not shown) [Imazalil, imazalil]
39.7

###

tested on: HepG2 cells; experiment: Alamar Blue cell viability/cytotoxicity assay, HepG2; assay type: cell-based, human; conditions: Homo sapiens; HepG2, 48 h exposure, mean ± S.D.; read-out: IC50
measured metric: pIC50
One number for each entry, as −log10 of the molar value.

Reported pIC50 for C=CCOC(Cn1ccnc1)c1ccc(Cl)cc1Cl (stereo not shown) : what is it?
4.33
